Reference for the values: the nanobody polyreactivity screen of Harvey et al. (2022)

test: yeast display, Sf9 membrane polyspecificity reagent, FACS + sequencing; frameworks hold sequencing errors

- RESIDUE_SEQUENCE: "QVQLVESGGGLVQAGGRLRLSCAASGSIFGVYAMGWYRQSPGKERELVATISRSGAITYYADSVKGRFTISRDNAKNTVYLQMNSLKPEDTAVYYCAADFFSRDWGQGTQVTVSS"
  polyreactivity (PSR sort gate): "low polyreactivity"
- RESIDUE_SEQUENCE: "QVQLVESGGGLVQAGGSLRLSCAASGSIFYPYAMGWYRQAPGKERELVAAIRWRGGNTYYADSVKGRFTFSRDNAKNTVYLQMNSLKPEDTAVYYCAADGKYLQGFGYYYWGQGTQVTVSS"
  polyreactivity (PSR sort gate): "high polyreactivity"
- RESIDUE_SEQUENCE: "QVQLVESGGGLVQAGGSLRLSCAASGRTIEHSAMGWYRQAPGKERELVAAINSSDGGTYYADSVKGRFTISRDNPKNTVYLQMNSLKPEDTAVYYCAAAEFGSVPGYEMDYWGHGTQVTVSS"
  polyreactivity (PSR sort gate): "low polyreactivity"
- RESIDUE_SEQUENCE: "QVQLVESGGGLVQAGGSLRLSCAASGSIFYLYAMGWYRQAPGKERELVAAINFRGGSTYADSVKGRFTISRDNAKNTVYLQMNSLKPEDTAVYYCAAKADYRMNYWGQGTQVTVSS"
  polyreactivity (PSR sort gate): "high polyreactivity"
- RESIDUE_SEQUENCE: "QVQLVESGGGLVQAGGSLRISCAASGITLYDNVMGWYRQAPGKERELVAAISSSGTTKYYADSVKGRFTMSRDHANNTVYLQMNSLKPEDTAGSYCAADGITWYAIAYYYWGQGTQVTVSS"
  polyreactivity (PSR sort gate): "high polyreactivity"
